# protocol summary: PET hydrolysis, aromatic products released after 48 h (umol product/mg enzyme); higher = more PET depolymerization activity
# applied conditions: substrate: cryPow; 60 °C; pH 7.5

# sequence, prefix operator, PET hydrolysis
data = [
    ("MAADNPYQRGPNPTSASVAASRGTFATAELSVPRGNGFGGGKIYYPTDTTQGTFGAIAIVPGYTATWAAEGAWMGHWLASFGFVVIGIDTNSRNDNDTARGTQLLAALDYLTQRSSVRGRVDAKRLAVMGHSMGGGGALVAARQRPSLKAAVGLAPFKPSGPPSADRVPTMVIAGQRDGTVTPSYVDGLYRAIPAGTEKAYLEFAGAGHAFPTRPNPLQMRLVIPWLKSFTDHDTRYHQFLCPLKDRTGVTAYRSTCPLVAPGARD [TEP041]", "<", 3),
    ("ADNPYQRGPDPTAASIAAVTGPFATASVTVPRGNGFGGGVIYYPTDTSQGTFGGIAISPGLNGTWPGIAWLGPRLASQGFVVFGIETNNLNDSPTSRGTQLLAALDYLTGSSSVRTRVDAGRLAVAGHSMGGGGALDAALRRPSLRATIGNAPHLPSGSLANDRVPTLIYAMQNDTLVPPSRLTSLYNTVPATTERGYLEITGAGHNYIGQPSTILARTMIPWLKIFVDDDARYSQFLCPLTDRSGISQYQSSCPLITTSPTTGPTAQPTTAAPTTTPTTPPVGGPCEATHRTVNSWSGGYQGEVTVRAGSAAINGWTVSWTLGSGQTINQVWGGALTASGTAATVRNETWNGPVAAGASTTFGYIATGNAPTQPLACSAR [ESM060]", "=", 12.5),
    ("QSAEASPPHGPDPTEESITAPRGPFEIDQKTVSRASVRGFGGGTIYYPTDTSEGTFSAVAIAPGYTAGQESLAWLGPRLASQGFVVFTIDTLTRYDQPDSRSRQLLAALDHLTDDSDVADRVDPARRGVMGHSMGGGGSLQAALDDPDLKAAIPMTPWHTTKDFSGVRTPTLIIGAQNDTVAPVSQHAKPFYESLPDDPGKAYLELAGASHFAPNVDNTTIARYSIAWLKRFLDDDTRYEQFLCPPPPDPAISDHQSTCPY [TEP105]", "=", 118),
    ("STRNQEPTLQSIEAARGPYEIATQSVPPAVNTGFGGGTIYYPATTGAGKFGAVALSPGYMEKEYSFSWLGTRLASQGFVVFIINTQNSEEFPSARTDELLASLNYLTQTSEVRDRVDPNRLAVMGHSMGGGAALEAAEKNQSLRAVISMTPWNIKTTYSDIKTPTLIIGAQYDNIAPVHDHAQPSYASLPNDLAKSYLELRNGNHFSPNMENTAIARSSTVWLKRFVDGDTRYNKFICPGPTVGDEFNIVQSNCPIL [DP079]", "<", 3),
    ("QYQKGPDPTVSALERTGSFATRTTTVSRTSASGFGGGTIYYPTASGSYGAIAISPGFTAYQSSISWMGTRLASHGFVVITIDTITTSDQPDSRGRQLKAALDKVVSLSRSSSSPIYNKVDTTRLAVAGHSMGGGGTLAAARDYPSLKAAVPLAPWHTTKSWSRVTVPTLIIGGSTDTIASVGLHSIPFYTSLPSSTNKAYMELSGEGHFFPQTSSNYPLVGRYMISWFKRFVDGDSRYSPFLCGAQHQADLGLFSDISDYRENCPY [ESM169]", "=", 29),
]
